Measured values drawn from patent US10934274B2 for this set.

The listing below reports Kd for molecules tested on Met (Homo sapiens, UniProt P08581).
Sequence (P08581 25-1390): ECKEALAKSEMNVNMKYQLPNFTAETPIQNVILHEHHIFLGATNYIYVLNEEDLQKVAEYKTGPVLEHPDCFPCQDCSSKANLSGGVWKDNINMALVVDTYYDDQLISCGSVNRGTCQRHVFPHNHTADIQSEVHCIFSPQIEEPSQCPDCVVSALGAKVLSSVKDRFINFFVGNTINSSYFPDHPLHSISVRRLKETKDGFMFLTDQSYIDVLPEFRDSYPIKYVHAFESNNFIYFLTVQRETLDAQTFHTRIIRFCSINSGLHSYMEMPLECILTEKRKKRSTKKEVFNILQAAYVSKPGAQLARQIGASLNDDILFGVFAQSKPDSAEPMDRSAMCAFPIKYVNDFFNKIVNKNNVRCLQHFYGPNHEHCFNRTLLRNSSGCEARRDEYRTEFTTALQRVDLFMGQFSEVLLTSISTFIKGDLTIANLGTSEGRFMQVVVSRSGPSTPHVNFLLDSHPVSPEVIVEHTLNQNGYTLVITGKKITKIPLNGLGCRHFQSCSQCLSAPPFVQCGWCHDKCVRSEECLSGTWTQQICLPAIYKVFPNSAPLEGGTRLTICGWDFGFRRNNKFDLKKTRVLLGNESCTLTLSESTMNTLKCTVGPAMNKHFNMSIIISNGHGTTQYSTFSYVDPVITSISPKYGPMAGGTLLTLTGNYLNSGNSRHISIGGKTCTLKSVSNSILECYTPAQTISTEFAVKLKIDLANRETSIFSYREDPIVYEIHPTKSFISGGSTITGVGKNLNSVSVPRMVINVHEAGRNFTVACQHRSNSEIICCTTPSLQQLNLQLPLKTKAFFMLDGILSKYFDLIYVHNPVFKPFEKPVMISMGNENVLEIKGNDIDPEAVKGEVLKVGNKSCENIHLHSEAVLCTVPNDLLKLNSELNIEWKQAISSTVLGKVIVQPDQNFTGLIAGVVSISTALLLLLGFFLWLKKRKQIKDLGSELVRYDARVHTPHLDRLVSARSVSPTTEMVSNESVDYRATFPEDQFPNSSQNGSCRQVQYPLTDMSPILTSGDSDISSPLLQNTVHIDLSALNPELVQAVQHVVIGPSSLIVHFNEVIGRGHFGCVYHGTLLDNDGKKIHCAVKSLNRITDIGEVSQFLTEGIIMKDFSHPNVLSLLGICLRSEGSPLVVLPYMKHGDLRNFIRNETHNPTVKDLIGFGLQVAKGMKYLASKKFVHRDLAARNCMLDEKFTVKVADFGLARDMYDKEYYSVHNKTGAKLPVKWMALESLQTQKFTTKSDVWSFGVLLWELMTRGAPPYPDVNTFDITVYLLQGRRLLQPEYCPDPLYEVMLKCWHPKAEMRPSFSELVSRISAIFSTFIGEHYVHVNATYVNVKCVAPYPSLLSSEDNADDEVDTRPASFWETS
Reported Endpoint: Kd

[[record]]
molecule = "CCOc1cn(-c2cncnc2OC)nc1C(=O)Nc1ccc(Oc2ccnc3cc(OC)c(OC)cc23)cn1 [Compound 175]"
study_system = "Met (Homo sapiens, UniProt P08581)"
reported_endpoint = "Kd"
recorded_measurement = "< 100 nM"

[[record]]
molecule = "CCOc1cn(-c2cnc(CO)nc2)nc1C(=O)Nc1ccc(Oc2ccnc3cc(OC)c(OC)cc23)cn1 [Compound 96]"
study_system = "Met (Homo sapiens, UniProt P08581)"
reported_endpoint = "Kd"
recorded_measurement = "≥ 1000 nM"

[[record]]
molecule = "CCOc1cn(-c2ncccc2CN(C)C)nc1C(=O)Nc1ccc(Oc2ccnc3cc(OC)c(OC)cc23)cn1 [Compound 142]"
study_system = "Met (Homo sapiens, UniProt P08581)"
reported_endpoint = "Kd"
recorded_measurement = "< 100 nM"

[[record]]
molecule = "COc1cc2nccc(Oc3ccc(NC(=O)c4nn(-c5ccc(F)cc5F)cc4OCC(F)(F)F)nc3)c2cc1OC [Compound 268]"
study_system = "Met (Homo sapiens, UniProt P08581)"
reported_endpoint = "Kd"
recorded_measurement = "< 100 nM"

[[record]]
molecule = "COc1cc2nccc(Oc3ccc(NC(=O)c4nn(-c5cnc(N)nc5)cc4OCC(F)(F)F)nc3)c2cc1OC [Compound 237]"
study_system = "Met (Homo sapiens, UniProt P08581)"
reported_endpoint = "Kd"
recorded_measurement = "< 100 nM"

[[record]]
molecule = "CCOc1cnn(-c2ccc(C(C)C)cc2)c1C(=O)Nc1ccc(Oc2ccnc3cc(OC)c(OC)cc23)cn1 [Compound 118]"
study_system = "Met (Homo sapiens, UniProt P08581)"
reported_endpoint = "Kd"
recorded_measurement = "100 to 1000 nM"


###

Sequence of the target: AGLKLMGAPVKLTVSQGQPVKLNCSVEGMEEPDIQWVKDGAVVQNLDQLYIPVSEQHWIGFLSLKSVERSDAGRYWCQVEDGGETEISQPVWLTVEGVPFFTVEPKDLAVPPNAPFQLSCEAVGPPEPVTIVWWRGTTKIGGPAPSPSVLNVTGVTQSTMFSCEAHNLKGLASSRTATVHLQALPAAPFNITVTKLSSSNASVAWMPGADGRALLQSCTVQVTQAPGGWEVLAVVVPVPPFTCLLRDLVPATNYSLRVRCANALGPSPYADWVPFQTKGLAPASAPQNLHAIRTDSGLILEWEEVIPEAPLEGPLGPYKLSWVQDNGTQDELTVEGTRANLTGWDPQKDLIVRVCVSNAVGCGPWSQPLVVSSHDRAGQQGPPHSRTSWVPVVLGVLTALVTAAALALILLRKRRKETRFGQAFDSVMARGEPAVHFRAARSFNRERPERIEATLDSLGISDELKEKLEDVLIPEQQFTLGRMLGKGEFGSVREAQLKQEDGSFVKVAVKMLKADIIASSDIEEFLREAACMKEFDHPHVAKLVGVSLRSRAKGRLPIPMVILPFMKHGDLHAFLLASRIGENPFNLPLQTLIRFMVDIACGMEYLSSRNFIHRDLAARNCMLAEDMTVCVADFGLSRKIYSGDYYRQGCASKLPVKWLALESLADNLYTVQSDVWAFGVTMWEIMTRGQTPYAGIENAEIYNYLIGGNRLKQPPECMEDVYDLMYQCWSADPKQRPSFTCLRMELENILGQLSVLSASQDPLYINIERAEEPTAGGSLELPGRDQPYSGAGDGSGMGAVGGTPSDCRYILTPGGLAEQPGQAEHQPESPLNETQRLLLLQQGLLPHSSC
pKd: −log10 of the molar value.
Reported Endpoint: pKd

[[record]]
molecule = "CCOc1cn(C2CCN(C)C2)nc1C(=O)Nc1ccc(Oc2ccnc3cc(OC)c(OC)cc23)cn1 (stereo not shown)"
reported_endpoint = "pKd"
recorded_measurement = "6.00 to 7.00"

[[record]]
molecule = "CCOc1cn(CCC(=O)O)nc1C(=O)Nc1ccc(Oc2ccnc3cc(OC)c(OC)cc23)cn1"
reported_endpoint = "pKd"
recorded_measurement = "6.00 to 7.00"

[[record]]
molecule = "CCOc1cn(-c2cnc(N)nc2)nc1C(=O)Nc1ccc(Oc2ccnc3cc(OC)c(OC)cc23)cc1F"
reported_endpoint = "pKd"
recorded_measurement = "> 7.00"

[[record]]
molecule = "CCOc1cn(Cc2cnccn2)nc1C(=O)Nc1ccc(Oc2ccnc3cc(OC)c(OC)cc23)cc1F"
reported_endpoint = "pKd"
recorded_measurement = "> 7.00"

[[record]]
molecule = "CCOc1cn(-c2ccc(F)cc2C(C)C)nc1C(=O)Nc1ccc(Oc2ccnc3cc(OC)c(OC)cc23)cn1"
reported_endpoint = "pKd"
recorded_measurement = "> 7.00"

[[record]]
molecule = "CCOc1cn(-c2cn[nH]c2)nc1C(=O)Nc1ccc(Oc2ccnc3cc(OC)c(OC)cc23)cn1"
reported_endpoint = "pKd"
recorded_measurement = "6.00 to 7.00"

[[record]]
molecule = "CCOc1cn(-c2cc[nH]c2)nc1C(=O)Nc1ccc(Oc2ccnc3cc(OC)c(OC)cc23)cn1"
reported_endpoint = "pKd"
recorded_measurement = "> 7.00"

[[record]]
molecule = "COc1cc2nccc(Oc3ccc(NC(=O)c4nn(-c5cnc(Cl)cn5)cc4OCC(F)(F)F)nc3)c2cc1OC"
reported_endpoint = "pKd"
recorded_measurement = "> 7.00"

[[record]]
molecule = "CCOc1cn(-c2cnc(CO)nc2)nc1C(=O)Nc1ccc(Oc2ccnc3cc(OC)c(OC)cc23)cn1"
reported_endpoint = "pKd"
recorded_measurement = "≤ 6.00"

[[record]]
molecule = "CCOc1cn(-c2ccc(Cl)cc2C(F)(F)F)nc1C(=O)Nc1ccc(Oc2ccnc3cc(OC)c(OC)cc23)cn1"
reported_endpoint = "pKd"
recorded_measurement = "6.00 to 7.00"

[[record]]
molecule = "CCOc1cn(CCC(=O)NC)nc1C(=O)Nc1ccc(Oc2ccnc3cc(OC)c(OC)cc23)cn1"
reported_endpoint = "pKd"
recorded_measurement = "6.00 to 7.00"

[[record]]
molecule = "CCOc1cn(-c2cnccc2C(F)(F)F)nc1C(=O)Nc1ccc(Oc2ccnc3cc(OC)c(OC)cc23)c(F)c1"
reported_endpoint = "pKd"
recorded_measurement = "> 7.00"

[[record]]
molecule = "CCOc1cn(-c2cccnc2)nc1C(=O)Nc1ccc(Oc2ccnc3cc(OC)c(OC)cc23)cc1F"
reported_endpoint = "pKd"
recorded_measurement = "6.00 to 7.00"

[[record]]
molecule = "CCOc1cn(-c2ccc(C(C)C)cc2F)nc1C(=O)Nc1ccc(Oc2ccnc3cc(OC)c(OC)cc23)cn1"
reported_endpoint = "pKd"
recorded_measurement = "≤ 6.00"

[[record]]
molecule = "CCOc1cn(-c2ncc(F)cc2C#N)nc1C(=O)Nc1ccc(Oc2ccnc3cc(OC)c(OC)cc23)cn1"
reported_endpoint = "pKd"
recorded_measurement = "6.00 to 7.00"

[[record]]
molecule = "CCOc1cnn(-c2ccc(C(F)(F)F)cc2C(F)(F)F)c1C(=O)Nc1ccc(Oc2ccnc3cc(OC)c(OC)cc23)cn1"
reported_endpoint = "pKd"
recorded_measurement = "6.00 to 7.00"

[[record]]
molecule = "CCOc1cn(-c2ccc(F)cc2C)nc1C(=O)Nc1cnc(Oc2ccnc3cc(OC)c(OC)cc23)cn1"
reported_endpoint = "pKd"
recorded_measurement = "≤ 6.00"

[[record]]
molecule = "COc1cc2nccc(Oc3ccc(NC(=O)c4nn(-c5cccnc5)cc4OCC4CC4)nc3)c2cc1OC(F)(F)F"
reported_endpoint = "pKd"
recorded_measurement = "> 7.00"

[[record]]
molecule = "CCOc1cnn(-c2ccco2)c1C(=O)Nc1ccc(Oc2ccnc3cc(OC)c(OC)cc23)cn1"
reported_endpoint = "pKd"
recorded_measurement = "6.00 to 7.00"

[[record]]
molecule = "CCOc1cn(CC2CCN(C)CC2)nc1C(=O)Nc1ccc(Oc2ccnc3cc(OC)c(OC)cc23)cc1F"
reported_endpoint = "pKd"
recorded_measurement = "6.00 to 7.00"

[[record]]
molecule = "CCOc1cn(-c2cnc(N)cc2C)nc1C(=O)Nc1ccc(Oc2ccnc3cc(OC)c(OC)cc23)cn1"
reported_endpoint = "pKd"
recorded_measurement = "6.00 to 7.00"

[[record]]
molecule = "CCOc1cnn(C2CCN(C)CC2)c1C(=O)Nc1ccc(Oc2ccnc3cc(OC)c(OC)cc23)cc1F"
reported_endpoint = "pKd"
recorded_measurement = "≤ 6.00"

[[record]]
molecule = "CCOc1cnn(-c2ccsc2)c1C(=O)Nc1ccc(Oc2ccnc3cc(OC)c(OC)cc23)cn1"
reported_endpoint = "pKd"
recorded_measurement = "6.00 to 7.00"

[[record]]
molecule = "COc1cc2nccc(Oc3ccc(NC(=O)c4nn(-c5ccc(F)cc5C(C)=O)cc4OCC4CC4)nc3)c2cc1OC"
reported_endpoint = "pKd"
recorded_measurement = "6.00 to 7.00"

[[record]]
molecule = "CCOc1cnn(-c2ccc(C(C)C)cc2)c1C(=O)Nc1ccc(Oc2ccnc3cc(OC)c(OC)cc23)cn1"
reported_endpoint = "pKd"
recorded_measurement = "6.00 to 7.00"

[[record]]
molecule = "CCOc1cn(-c2ccc(OC(F)(F)F)cc2Cl)nc1C(=O)Nc1ccc(Oc2ccnc3cc(OC)c(OC)cc23)cn1"
reported_endpoint = "pKd"
recorded_measurement = "≤ 6.00"

[[record]]
molecule = "CCOc1cn(-c2nccs2)nc1C(=O)Nc1ccc(Oc2ccnc3cc(OC)c(OC)cc23)cn1"
reported_endpoint = "pKd"
recorded_measurement = "> 7.00"

[[record]]
molecule = "CCOc1cn(-c2cnccc2CN(C)C)nc1C(=O)Nc1ccc(Oc2ccnc3cc(OC)c(OC)cc23)cn1"
reported_endpoint = "pKd"
recorded_measurement = "6.00 to 7.00"

